Values were extracted from a melting point compilation (Tetko et al.; mined from patent text by program, amines drawn as free bases though some values may be those of a salt).

Exercise: state measured melting point for each of the compounds provided.

Some solved cases for reference:
{"Compound": "CC1=C(C(=O)CS(=O)(=O)NC(C)C)C(c2cccc([N+](=O)[O-])c2)C(C(=O)OC(C)C)=C(C)N1C (centres undefined)", "melting point": "67 to 69 °C"}
{"Compound": "Cc1ccc(CC2CCN(C(=O)CNc3ccc4[nH]c(=O)oc4c3)CC2)cc1", "melting point": "212 to 215 °C"}
{"Compound": "C=CCOC(=O)c1c(C)c(OC)cc(O[Si](C)(C)C(C)(C)C(C)C)c1C=O", "melting point": "81 to 82 °C"}
{"Compound": "Cc1cccc2c(=O)[nH]c(CC3CN4CCC3CC4)nc12 (centres undefined)", "melting point": "187 to 188 °C"}
{"Compound": "CC(=O)N(C)c1ccc(Cl)c(COc2cccn3c(Br)c(C)nc23)c1Cl", "melting point": "201 to 204 °C"}

Batch request: melting point per item, same order as input.
1. CC(S)=C(C#N)C(=O)Nc1ccc(C(F)(F)F)cc1
2. COC1=C(OC)C(=O)C(CCCCCCCCCOC(C)=O)=C(C)C1=O
3. CC(C)(CO)Nc1nc(-c2ccc(C#N)c(F)c2)cs1
4. CCN(CC)c1ccc(-c2nc(-c3cc(OC)c(O)c(OC)c3)n(C(=O)NS(=O)(=O)c3ccc(C)cc3)c2-c2ccc(N(CC)CC)cc2)cc1

1. 183 to 184 °C
2. 30 °C
3. 128 to 130 °C
4. 65 °C

###

Value kind: melting point

Give one value of melting point per listed compound.
1. CCCCOC(=O)CCC(C)(c1ccc(O)c(C(C)(C)C)c1)c1ccc(O)c(C(C)(C)C)c1
2. CC(=O)N1CCC(C(=O)N(CCCN2CC3CN(C(=O)c4c(C)ccnc4C)CC3C2)c2ccc(C)c(Cl)c2)CC1 (centres undefined)
3. CCOC(=O)C1=CC2(CCC1S(=O)(=O)Nc1ccc(F)cc1Cl)CC2 (centres undefined)
4. O=C(N[C@H](Cc1ccc(C(F)(F)F)cc1)[C@@H](O)c1ccc(F)cc1)c1ccc2ccccc2c1 (racemic)
5. CNC(=O)NC(=O)C(CC1CCCC1)c1ccc(C(F)(F)F)c(F)c1 (centres undefined)
6. OC1CCCCC1Oc1ccc(Oc2ccccc2)cc1 (centres undefined)

123 °C
81.5 to 83.6 °C
125 to 126 °C
174 to 175 °C
187 to 189 °C
103 to 105 °C

List reported melting point for each of these compounds:
1. CC(=O)c1ccccc1OC1SCC(O)C(O)C1O (centres undefined)
2. COc1cc2c(cc1OC)-c1c(C(=O)NC3CCCCC3)c(-c3cc(C)c(O)c(C)c3)c(C)n1CC2
3. CCOC(=O)NC1=NN(c2cccc(Cl)c2)C(=O)C1

1: 102 to 105 °C; 2: 273 to 276 °C; 3: 189 °C

###

Give melting point for every item shown.

Please review the entries below; each comes with its answer.
{"Molecule": "COc1ccc(C(=O)N[C@H](C(=O)N2CCC[C@H]2C(=O)N[C@@H](C(C)C)[C@@H](O)C(F)(F)F)C(C)C)cc1", "Reading": "168 to 170 °C"}
{"Molecule": "CC(=O)COc1cc2c(c(Cl)c1Cl)C(=O)C(C)(c1ccccc1)C2 (stereo not given)", "Reading": "144 °C"}
{"Molecule": "COC(=O)C1=C(NCc2ccccc2)C(=O)O[C@@H]1C", "Reading": "68 to 70 °C"}
{"Molecule": "CC(C)(OCc1nn(Cc2ccccc2)c2ccccc12)C(=O)Nc1ccccn1", "Reading": "121 to 122 °C"}

For every record below, what is its melting point?
1. COC(=O)C1Cc2cc3c(cc2C(=O)CS1)OCO3 (stereo not given)
2. CCOC(=O)c1cnc(CCOC)nc1NCc1ccc(-c2ccccc2-c2nnn[nH]2)cc1
3. COc1ccc2c3c1OC1C(=O)C(C)CC4(OC)C(C2)N(C)CCC314 (stereo not given)
4. O=C(O)C(O)=CC(=O)c1ccc(Cl)c(Cl)c1
5. CCc1nc2c(N)nc3cc(OCCNC(=O)NC(C)C)ccc3c2n1CC1CCOCC1
6. S=C=NCCCN1CCC(c2ccccc2)CC1

1: 165 to 166 °C; 2: 122 to 124 °C; 3: 215 to 221 °C; 4: 180 to 181 °C; 5: 223 to 225 °C; 6: 50 to 55 °C

###

Record form. Attribute: melting point. Fill in for each entry.

{"Compound": "O=C1CC(Cc2ccc(Cl)cc2)CN1 (stereo not given)", "melting point": "95 to 98 °C"}
{"Compound": "O=C(Nc1ccc2ccc(Oc3ccccc3)nc2n1)c1cccs1", "melting point": "176 °C"}
{"Compound": "CCC(CNC(=S)Nc1cccc(-c2c[nH]cn2)c1)N(Cc1ccc(Cl)c(Cl)c1)c1ccc(Br)cn1 (stereo not given)", "melting point": "140 to 160 °C"}
{"Compound": "O=C(O)Cc1csc(-c2ccccc2O)n1", "melting point": "173 to 174 °C"}

Looking for the measured melting point of COC(C)OC(=O)C1CC(=O)N(c2ccc(C(C)(C)C)cc2)C1 (stereo not given) , can you help?
60 to 61 °C

###

Value kind: melting point

{"Molecule": "COC(C)(OC)OC(=O)N[C@@H](Cc1cn(S(=O)(=O)c2ccc(C)cc2)cn1)C(=O)O", "melting point": "120 °C"}
{"Molecule": "CCOC(=O)c1sc2[nH]c(=O)ccc2c1Br", "melting point": "262 to 268 °C"}

Batch request: melting point per item, same order as input.
1. N#Cc1c(-c2ccccc2)cc(Cl)nc1Cl
2. CC(=O)N(O)Cc1ccc(OCCN(C)c2nc3ccccc3o2)cc1

["167 to 169 °C", "135 to 136 °C"]

Batch of 5 molecules: report melting point for each.
1. CNC(=O)Cn1nc(-c2ccc(OC)cc2)cc(C(=O)NC)c1=O
2. O=C(O)c1cc(CO)nn1-c1ncccc1Cl
3. COc1ccc(-c2nc(C(C)C)sc2-c2ccc(OC)cc2)cc1
4. COC(=O)c1ccc(C(=O)NNC(=O)C=Cc2ccccc2)cc1
5. CCOC(=O)C(=O)c1ccc2c(c1)CCCO2

250 to 251 °C
178 to 180 °C
61 to 65 °C
207 °C
119 to 121 °C

###

Value kind: melting point

Take a look at these entries with their results.
{"Molecule": "CC(=O)OC[C@@H]1C=C[C@H](n2cnc3c(Cl)nc(N)nc32)C1", "Reading": "124 to 127 °C"}
{"Molecule": "CCOC(=O)c1cn(Cc2cccnc2)nc1OCc1ccc(OCc2nc(-c3ccco3)oc2C)c(OC)c1", "Reading": "131 to 132 °C"}
{"Molecule": "CC(=O)c1ccc(NC(=O)Nc2ccc(S(N)(=O)=O)cc2)cc1", "Reading": "258 to 260 °C"}

Provide each entry's melting point from the list below.
1. c1ccc(-c2ccc3nncn3n2)cc1
2. O=C(c1ccc(F)cc1)c1ccc(SCc2ccccc2)cc1

1. 138 to 139 °C
2. 96 °C

###

Record form. Attribute: melting point. Fill in for each entry.

// solved cases for melting point follow
{"Compound": "CC1CCc2c(N3CCC(O)CC3)c(F)cc3c(=O)c(C(=O)O)cn1c23 (stereo not given)", "melting point": "244 to 247 °C"}
{"Compound": "COc1cc(OC(C)=O)c(OC)c(CCCCCc2c(OC)c(OC(C)=O)cc(OC)c2OC(C)=O)c1OC(C)=O", "melting point": "94.5 to 95 °C"}

For every item below, please supply its melting point.
1. CCOc1ccc(C#N)c(F)c1F
2. FC(F)(F)c1ccc2c(c1)C(c1ccccc1)=NCc1nncn1-2
3. COC(=O)C1CSC(=O)C1 (stereo not given)

["45 °C", "258 to 260 °C", "33 to 35 °C"]

###

Answer each item with its documented melting point.

Here is how some compounds turned out for melting point.
{"Compound": "COc1cc(Nc2nccc(-c3ccc(N4CCNC(CCO)C4)nc3)n2)cc(OC)c1OC (stereo not given)", "melting point": "150 to 151 °C"}
{"Compound": "OCCCc1ccc2ccn(C3CCN(CCc4ccc(F)cc4)CC3)c2c1", "melting point": "131 to 133 °C"}
{"Compound": "COc1ccc(CONC(=O)[C@@H](C(C)C)N(Cc2cccnc2)S(=O)(=O)c2ccc(OC)cc2)cc1", "melting point": "45 to 53 °C"}
{"Compound": "FC(F)(F)CSc1nc2ccccc2[nH]1", "melting point": "148 to 150 °C"}
{"Compound": "C=C(Br)Cc1cc2c(C)cc(=O)oc2c(C)c1O", "melting point": "154 to 161 °C"}
{"Compound": "Cc1nc(N2CCc3ccccc3CC2)c(C#N)c(=O)n1C(F)F", "melting point": "143 °C"}

Below is a list of compounds. For each, state its recorded melting point.
1. O=C(O)COc1nn(Cc2ccccc2)cc1-c1ccccc1
2. O=C(N[C@@H](Cc1ccc2ccccc2c1)C(=O)O)OCc1ccccc1
3. CC(=O)Cn1c(Oc2ccc(-n3c4ncccc4n4ccnc34)cc2)nc2ccccc21
4. CC(C)c1ccc2c(c1)c(S(=O)(=O)c1ccccc1C(C)C)c(CC(C)(C)C(=O)O)n2Cc1ccc(Cl)cc1

["132 to 133 °C", "109 to 111 °C", "189 to 192 °C", "181 to 182 °C"]
